Cited source: ChEMBL document CHEMBL1909046

EXPERIMENTAL SYSTEM: 5-hydroxytryptamine receptor 2B (Homo sapiens, UniProt P41595); also: in other assays of this panel Not Active means under 50% inhibition at 10 µM
Sequence (P41595 whole entry): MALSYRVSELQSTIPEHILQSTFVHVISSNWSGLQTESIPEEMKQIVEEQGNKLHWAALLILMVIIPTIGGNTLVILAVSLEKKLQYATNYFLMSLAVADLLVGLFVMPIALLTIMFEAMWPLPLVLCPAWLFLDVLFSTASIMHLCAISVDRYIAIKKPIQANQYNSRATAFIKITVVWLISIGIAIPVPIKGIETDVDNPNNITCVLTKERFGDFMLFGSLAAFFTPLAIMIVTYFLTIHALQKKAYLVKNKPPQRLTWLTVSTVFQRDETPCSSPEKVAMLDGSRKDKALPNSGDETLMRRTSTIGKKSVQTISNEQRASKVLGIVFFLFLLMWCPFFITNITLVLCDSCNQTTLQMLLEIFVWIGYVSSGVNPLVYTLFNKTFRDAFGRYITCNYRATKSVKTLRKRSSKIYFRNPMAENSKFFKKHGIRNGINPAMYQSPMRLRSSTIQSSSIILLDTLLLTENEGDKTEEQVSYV
Assay type: cell membranes, CHO-K1, Membrane
CONDITION DETAILS: cho-k1
PROPERTY MEASURED: IC50

{"SUBSTANCE": "MANGANESE CHLORIDE ANHYDROUS", "EXPERIMENTAL SYSTEM": "5-hydroxytryptamine receptor 2B (Homo sapiens, UniProt P41595)", "IC50": "Not Active"}
{"SUBSTANCE": "SODIUM ORTHOVANAD", "EXPERIMENTAL SYSTEM": "5-hydroxytryptamine receptor 2B (Homo sapiens, UniProt P41595)", "IC50": "Not Active"}
{"SUBSTANCE": "GADOPENTETATE DIMEGLUMINE", "EXPERIMENTAL SYSTEM": "5-hydroxytryptamine receptor 2B (Homo sapiens, UniProt P41595)", "IC50": "Not Active"}
{"SUBSTANCE": "AURANOFIN", "EXPERIMENTAL SYSTEM": "5-hydroxytryptamine receptor 2B (Homo sapiens, UniProt P41595)", "IC50": "Not Active"}
{"SUBSTANCE": "GRAMICIDIN", "EXPERIMENTAL SYSTEM": "5-hydroxytryptamine receptor 2B (Homo sapiens, UniProt P41595)", "IC50": "Not Active"}

input: Query for 5-hydroxytryptamine receptor 2B (Homo sapiens, UniProt P41595): what IC50 does the record show for NYSTATIN ?
output: Not Active

input: Continue with GENTAMICIN
output: Not Active

* * *

EXPERIMENTAL SYSTEM: Sodium-dependent dopamine transporter (Homo sapiens, UniProt Q01959)
Sequence (Q01959 whole entry): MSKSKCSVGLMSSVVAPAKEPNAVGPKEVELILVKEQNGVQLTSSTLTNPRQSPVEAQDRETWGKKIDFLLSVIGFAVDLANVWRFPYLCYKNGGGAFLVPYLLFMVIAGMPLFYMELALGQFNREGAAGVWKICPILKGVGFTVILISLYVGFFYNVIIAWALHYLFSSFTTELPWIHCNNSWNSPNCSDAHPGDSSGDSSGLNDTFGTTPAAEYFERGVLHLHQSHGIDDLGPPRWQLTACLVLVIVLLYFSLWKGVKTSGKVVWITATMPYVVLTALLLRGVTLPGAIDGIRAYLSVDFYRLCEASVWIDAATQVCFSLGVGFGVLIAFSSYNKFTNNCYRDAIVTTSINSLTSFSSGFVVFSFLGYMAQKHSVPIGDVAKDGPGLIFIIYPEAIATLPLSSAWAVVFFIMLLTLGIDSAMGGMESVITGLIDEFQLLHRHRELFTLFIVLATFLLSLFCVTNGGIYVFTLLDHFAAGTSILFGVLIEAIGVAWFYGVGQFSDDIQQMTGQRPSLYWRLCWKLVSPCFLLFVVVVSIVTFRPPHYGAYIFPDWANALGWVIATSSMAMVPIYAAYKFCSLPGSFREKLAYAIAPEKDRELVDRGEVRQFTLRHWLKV
ASSAY SUMMARY: DRUGMATRIX: Dopamine Transporter radioligand binding (ligand: [125I] RTI-55)
Assay type: cell membranes, CHO-K1, Membrane
CONDITION DETAILS: cho-k1; Not Active = under 50% inhibition at 10 µM
PROPERTY MEASURED: IC50

{"MOLECULE": "COc1cc2nc(N3CCN(C(=O)C4CCCO4)CC3)nc(N)c2cc1OC (stereo not given) [TERAZOSIN]", "EXPERIMENTAL SYSTEM": "Sodium-dependent dopamine transporter (Homo sapiens, UniProt Q01959)", "RESULT": "Not Active"}
{"MOLECULE": "CCN(CC)CCOCCC1=CCC2CC1C2(C)C (stereo not given) [MYRTECAINE]", "EXPERIMENTAL SYSTEM": "Sodium-dependent dopamine transporter (Homo sapiens, UniProt Q01959)", "RESULT": "Not Active"}
{"MOLECULE": "C[C@@H](CO)NC(=O)[C@@H]1C=C2c3cccc4[nH]cc(c34)C[C@H]2N(C)C1 [ERGONOVINE]", "EXPERIMENTAL SYSTEM": "Sodium-dependent dopamine transporter (Homo sapiens, UniProt Q01959)", "RESULT": "Not Active"}
{"MOLECULE": "CC(C)NNC(=O)c1ccncc1 [IPRONIAZID]", "EXPERIMENTAL SYSTEM": "Sodium-dependent dopamine transporter (Homo sapiens, UniProt Q01959)", "RESULT": "Not Active"}
{"MOLECULE": "C=CCc1ccc(O)c(OC)c1 [EUGENOL]", "EXPERIMENTAL SYSTEM": "Sodium-dependent dopamine transporter (Homo sapiens, UniProt Q01959)", "RESULT": "Not Active"}

input: Bench note: what IC50 did CC(C(=O)O)c1cccc(Oc2ccccc2)c1 (stereo not given) [FENOPROFEN] show?
output: Not Active

input: Continue with C[C@@H]1C[C@H]2[C@@H]3CCC4=CC(=O)C=C[C@]4(C)[C@@]3(F)[C@@H](O)C[C@]2(C)[C@H]1C(=O)CO [DESOXIMETASONE]
output: Not Active

input: Continue with CC(C)NCC(O)COc1cccc2[nH]ccc12 (stereo not given) [PINDOLOL]
output: Not Active

input: Continue with Cn1c(=O)c2c(ncn2CC(O)CO)n(C)c1=O (stereo not given) [DYPHYLLINE]
output: Not Active

input: Continue with CC(c1cc2ccccc2s1)N(O)C(N)=O (stereo not given) [ZILEUTON]
output: Not Active

* * *

EXPERIMENTAL SYSTEM: UniProt P29274
Sequence (P29274 whole entry): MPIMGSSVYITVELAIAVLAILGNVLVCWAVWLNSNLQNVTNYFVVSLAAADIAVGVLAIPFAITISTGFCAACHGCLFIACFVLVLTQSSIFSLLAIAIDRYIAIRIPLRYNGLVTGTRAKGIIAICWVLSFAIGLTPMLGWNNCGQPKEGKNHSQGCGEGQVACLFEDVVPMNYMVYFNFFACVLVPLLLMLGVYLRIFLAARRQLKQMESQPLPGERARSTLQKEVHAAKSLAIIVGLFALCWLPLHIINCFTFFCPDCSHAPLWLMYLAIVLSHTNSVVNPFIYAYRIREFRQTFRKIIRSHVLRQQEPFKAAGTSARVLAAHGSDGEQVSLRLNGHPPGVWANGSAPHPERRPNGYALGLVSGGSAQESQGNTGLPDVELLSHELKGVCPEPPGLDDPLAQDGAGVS
ASSAY SUMMARY: DRUGMATRIX: Adenosine A2A radioligand binding (ligand: […])
Assay type: cell membranes, HEK293, Membrane
CONDITION DETAILS: Not Active = under 50% inhibition at 10 µM; read-out: Ki
PROPERTY MEASURED: pKi
Quick note: pKi values are minus log10 of concentrations in mol/L.

{"MOLECULE": "Oc1c(Cl)cc(Cl)c(Cl)c1Cc1c(O)c(Cl)cc(Cl)c1Cl [HEXACHLOROPHENE]", "EXPERIMENTAL SYSTEM": "UniProt P29274", "pKi": 6.04}

input: Bench note: what pKi did COC(=O)Nc1nc2ccc([S+]([O-])c3ccccc3)cc2[nH]1 (stereo not drawn) [OXFENDAZOLE] show?
output: 6.07

input: Continue with COC(=O)Nc1nc2ccc(C(=O)c3cccs3)cc2[nH]1 [NOCODAZOLE]
output: 5.37

* * *

EXPERIMENTAL SYSTEM: Melanocortin receptor 5 (Homo sapiens, UniProt P33032); also: in other assays of this panel Not Active means under 50% inhibition at 10 µM
Sequence (P33032 whole entry): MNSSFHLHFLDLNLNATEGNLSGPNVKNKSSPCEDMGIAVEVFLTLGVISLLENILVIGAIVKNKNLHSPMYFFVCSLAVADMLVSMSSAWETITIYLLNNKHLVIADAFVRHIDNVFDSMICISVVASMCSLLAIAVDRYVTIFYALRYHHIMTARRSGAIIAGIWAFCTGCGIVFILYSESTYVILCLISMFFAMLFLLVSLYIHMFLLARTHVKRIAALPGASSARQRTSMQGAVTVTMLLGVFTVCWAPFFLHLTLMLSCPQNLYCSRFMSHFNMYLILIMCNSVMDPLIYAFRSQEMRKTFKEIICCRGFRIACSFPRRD
Assay type: cell membranes, HEK293, Membrane
CONDITION DETAILS: hek293; read-out: Ki
PROPERTY MEASURED: pKi
Quick note: pKi values are minus log10 of concentrations in mol/L.

input: Bench note: what pKi did GRAMICIDIN show?
output: 5.72

* * *

EXPERIMENTAL SYSTEM: Cannabinoid receptor 1 (Homo sapiens); also: in other assays of this panel Not Active means under 50% inhibition at 10 µM
Sequence (P21554 whole entry): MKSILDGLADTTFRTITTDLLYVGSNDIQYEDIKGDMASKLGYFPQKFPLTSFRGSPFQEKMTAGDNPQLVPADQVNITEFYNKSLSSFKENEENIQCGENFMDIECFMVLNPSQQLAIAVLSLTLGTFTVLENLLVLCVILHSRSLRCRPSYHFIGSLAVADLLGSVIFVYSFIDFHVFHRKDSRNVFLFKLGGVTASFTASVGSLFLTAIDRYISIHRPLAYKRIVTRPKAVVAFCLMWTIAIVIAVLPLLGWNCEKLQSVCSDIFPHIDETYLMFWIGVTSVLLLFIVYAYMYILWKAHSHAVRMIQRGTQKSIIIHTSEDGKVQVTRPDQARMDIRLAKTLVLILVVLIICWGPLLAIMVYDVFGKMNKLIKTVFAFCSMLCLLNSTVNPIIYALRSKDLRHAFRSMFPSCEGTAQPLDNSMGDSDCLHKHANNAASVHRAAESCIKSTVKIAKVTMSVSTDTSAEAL
Type: cell membranes, Chem-1, Membrane
CONDITION DETAILS: chem-1
PROPERTY MEASURED: IC50

{"COMPOUND": "Cc1cc2c(OCC(CNC(C)(C)C)OC(=O)c3ccccc3)cccc2[nH]1 (stereo not drawn) [BOPINDOLOL]", "PROPERTY MEASURED": "IC50", "RESULT": "Not Active"}
{"COMPOUND": "CC(c1cc2ccccc2s1)N(O)C(N)=O (stereo not drawn) [ZILEUTON]", "PROPERTY MEASURED": "IC50", "RESULT": "Not Active"}
{"COMPOUND": "CC[C@@H](C(=O)[C@@H](C)[C@@H](O)[C@H](C)[C@@H]1O[C@@H]([C@@H](CC)C(=O)O)CC[C@@H]1C)[C@H]1O[C@]2(C=C[C@@H](O)[C@]3(CC[C@@](C)([C@H]4CC[C@](O)(CC)[C@H](C)O4)O3)O2)[C@H](C)C[C@@H]1C [SALINOMYCIN]", "PROPERTY MEASURED": "IC50", "RESULT": "Not Active"}

* * *

ASSAY SUMMARY: DRUGMATRIX: beta-Lactamase enzyme inhibition (substrate: Nitrocefin)
Set-up: species or system Bacillus cereus
CONDITION DETAILS: Not Active = under 50% inhibition at 10 µM
PROPERTY MEASURED: IC50

Sample records with IC50:
{"MOLECULE": "CCCCNc1ccc(C(=O)OCCN(C)C)cc1", "RESULT": "Not Active"}
{"MOLECULE": "O=C(Oc1ccccc1C(=O)O)c1ccccc1O [SALSALATE]", "RESULT": "Not Active"}
{"MOLECULE": "O=C(O)c1cccnc1Nc1cccc(C(F)(F)F)c1", "RESULT": "Not Active"}
{"MOLECULE": "CC(C)NCC(O)c1ccc(NS(C)(=O)=O)cc1 (stereo unspecified)", "RESULT": "Not Active"}
{"MOLECULE": "C[n+]1ccccc1/C=N/O.[Cl-] [PRALIDOXIME CHLORIDE]", "RESULT": "Not Active"}

input: Bench note: what IC50 did COc1ccc2[nH]cc(CCNC(C)=O)c2c1 show?
output: Not Active

* * *

ASSAY SUMMARY: DRUGMATRIX: GABAA, Flunitrazepam, Central radioligand binding (ligand: [3H] Flunitrazepam)
Format: cell membranes, Rattus norvegicus, Wistar, Brain, Membrane
CONDITION DETAILS: Not Active = under 50% inhibition at 10 µM; read-out: IC50
PROPERTY MEASURED: IC50
Param answer (str): number followed by unit.

{"MOLECULE": "O=C1CN=C(c2ccccc2Cl)c2cc([N+](=O)[O-])ccc2N1", "RESULT": "4.93 nM"}
{"MOLECULE": "C#CC1(O)CC[C@H]2[C@@H]3CCC4=CC(=O)CC[C@@H]4[C@H]3CC[C@@]21CC (stereo not given in full)", "RESULT": "2360 nM"}
{"MOLECULE": "O=c1cc(N2CCOCC2)oc2c(-c3ccccc3)cccc12", "RESULT": "21400 nM"}
{"MOLECULE": "O=C1Nc2ccc(Cl)cc2C(c2ccccc2Cl)=NC1O (stereo not given)", "RESULT": "6.35 nM"}

input: Bench note: what IC50 did Cc1nnc2n1-c1ccc(Cl)cc1C(c1ccccc1)=NC2 show?
output: 16.6 nM
